Values were extracted from patent US20240182465A1.

Target: HPK1 (Homo sapiens, UniProt Q92918)
Sequence (Q92918 1-346 limits assumed): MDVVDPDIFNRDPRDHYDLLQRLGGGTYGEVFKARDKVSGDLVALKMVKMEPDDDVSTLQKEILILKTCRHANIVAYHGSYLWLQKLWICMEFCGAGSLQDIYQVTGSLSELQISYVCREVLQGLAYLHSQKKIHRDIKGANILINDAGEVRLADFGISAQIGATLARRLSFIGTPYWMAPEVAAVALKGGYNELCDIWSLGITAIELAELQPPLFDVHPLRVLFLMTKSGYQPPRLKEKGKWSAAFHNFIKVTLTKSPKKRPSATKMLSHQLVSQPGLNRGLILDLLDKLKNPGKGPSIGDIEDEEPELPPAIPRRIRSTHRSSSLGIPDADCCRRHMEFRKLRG
Assay: HPK1 kinase activity assay (ADP-Glo)
Details: HPK1 Kinase activity IC50 (nM), 1 nM HPK1, 10 μM ATP, 0.1 μg/μL MBP

compound: Cc1c[nH]c2ncc(-c3cc4c(c([C@@H]5CCCN5)c3)CN(C(=O)C(C)(C)O)CC4)cc12 [Compound Z216]
IC50 (nM): 0.41
--
compound: Cc1c[nH]c2ncc(-c3cc4c(c([C@@H]5CCCN5)c3)CN(C(=O)C3CCOCC3)CC4)cc12 [Compound Z127]
IC50 (nM): 0.58
--
compound: CC(C)c1c[nH]c2ncc(-c3cc4c(c([C@@H]5COCCN5)c3)CN(C(=O)C3(O)CC3)CC4)cc12 [Compound Z433]
IC50 (nM): 0.22
--
compound: Cc1c[nH]c2ncc(-c3cc4c(c([C@@H]5CCCN5)c3)CN(C(=O)N3CCOCC3(C)C)CC4)cc12 [Compound Z361]
IC50 (nM): 0.36

====

Target: HPK1 (Homo sapiens)
Sequence (Q92918 1-346 limits assumed): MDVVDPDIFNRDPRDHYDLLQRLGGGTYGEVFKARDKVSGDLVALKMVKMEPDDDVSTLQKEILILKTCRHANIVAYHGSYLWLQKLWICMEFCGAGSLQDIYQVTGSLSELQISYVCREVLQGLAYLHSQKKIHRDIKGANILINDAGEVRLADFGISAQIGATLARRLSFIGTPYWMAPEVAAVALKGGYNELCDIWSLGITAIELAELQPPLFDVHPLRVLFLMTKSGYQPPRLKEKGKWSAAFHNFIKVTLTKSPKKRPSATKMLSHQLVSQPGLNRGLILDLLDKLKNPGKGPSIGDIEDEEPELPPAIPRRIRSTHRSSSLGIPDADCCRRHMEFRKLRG
Assay: HPK1 kinase activity assay (ADP-Glo)
Details: HPK1 Kinase activity IC50 (nM), 1 nM HPK1, 10 μM ATP, 0.1 μg/μL MBP
Entries and their IC50
endpoint: IC50 (nM)

compound: Cc1c[nH]c2ncc(-c3cc4c(c([C@@H]5CCCN5)c3)CCN(CC3CCOCC3)C4)cc12
number: 1.2
--
compound: CC(=O)N1CCc2cc(-c3cnc4[nH]cc(C)c4c3)cc([C@@H]3CCCN3)c2C1 (single isomer, unassigned)
number: 0.5
--
compound: COCc1cc(N2CCc3cc(-c4cnc5[nH]cc(C)c5c4)cc([C@@H]4CCCN4)c3C2)ccn1
number: 0.61
--
compound: Cc1c[nH]c2ncc(-c3cc4c(c([C@@H]5CCCN5)c3)COC4)cc12
number: 2.52
--
compound: Cc1c[nH]c2ncc(-c3cc4c(c(C5COCCN5)c3)CN(C(=O)[C@](C)(O)C(F)(F)F)CC4)cc12 (some centres unmarked)
number: 0.86
